target: Carbonic anhydrase 7 (Homo sapiens, UniProt P43166)
Sequence (P43166 whole entry): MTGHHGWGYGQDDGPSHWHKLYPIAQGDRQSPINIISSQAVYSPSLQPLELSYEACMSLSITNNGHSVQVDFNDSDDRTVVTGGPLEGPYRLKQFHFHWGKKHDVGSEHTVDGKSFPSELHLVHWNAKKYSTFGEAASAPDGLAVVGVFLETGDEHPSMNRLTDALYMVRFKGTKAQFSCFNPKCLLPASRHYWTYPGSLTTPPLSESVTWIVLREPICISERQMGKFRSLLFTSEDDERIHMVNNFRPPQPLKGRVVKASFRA
VALUE_KIND: Ki (µM)
Output spec: scalar in µM, unitless text.

See these solved cases before continuing.
COMPOUND_STRING: CC(C)c1cccc(OCc2ccc(Br)cc2)c(=O)c1
VALUE_KIND: Ki
EXPERIMENTAL_RESULT: 0.96
//
COMPOUND_STRING: CC(C)c1cccc(OC(=O)c2ccc([N+](=O)[O-])cc2)c(=O)c1
VALUE_KIND: Ki
EXPERIMENTAL_RESULT: 9.6
//
COMPOUND_STRING: CC(C)c1cccc(=O)c(OCc2ccccc2[N+](=O)[O-])c1
VALUE_KIND: Ki
EXPERIMENTAL_RESULT: 5.41
//
COMPOUND_STRING: O=c1cccccc1OCc1cccc2ccccc12
VALUE_KIND: Ki
EXPERIMENTAL_RESULT: 2.82
//
COMPOUND_STRING: O=c1cccccc1OCc1ccccc1C(F)(F)F
VALUE_KIND: Ki
EXPERIMENTAL_RESULT: 6.19

input: Provide value of Ki for this record tested with Carbonic anhydrase 7 (Homo sapiens, UniProt P43166): O=c1cccccc1OCCCCCBr
output: 1.52

----------
// reported Ki for each item listed
biological target: Carbonic anhydrase 5A, mitochondrial (Homo sapiens)
Sequence (P35218 whole entry): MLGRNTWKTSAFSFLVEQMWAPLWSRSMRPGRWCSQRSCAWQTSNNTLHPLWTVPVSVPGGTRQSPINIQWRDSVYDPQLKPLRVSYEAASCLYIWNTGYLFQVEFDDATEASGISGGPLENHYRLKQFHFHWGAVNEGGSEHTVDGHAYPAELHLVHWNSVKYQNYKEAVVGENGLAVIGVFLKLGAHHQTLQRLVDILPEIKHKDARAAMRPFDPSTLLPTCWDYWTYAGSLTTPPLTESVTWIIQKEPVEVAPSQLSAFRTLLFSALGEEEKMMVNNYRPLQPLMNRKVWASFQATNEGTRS
Hi! Could you send only the number? It should be in µM, unit omitted.

Some compounds with known Ki results, for comparison:
COMPOUND: CC(C)c1cccc(=O)c(O)c1 [HINOKITIOL]
MEASURED_TARGET: Carbonic anhydrase 5A, mitochondrial (Homo sapiens)
UNITS: µM
Ki: 7.5

COMPOUND: Cc1ccc(S(=O)(=O)Oc2cccc(C(C)C)cc2=O)cc1
MEASURED_TARGET: Carbonic anhydrase 5A, mitochondrial (Homo sapiens)
UNITS: µM
Ki: 4.45

Now take the following compound into account.
input: Lookup: Ki / Carbonic anhydrase 5A, mitochondrial (Homo sapiens) / CC(C)c1cccc(OCc2cccc3ccccc23)c(=O)c1
output: 89.4

----------
target: Carbonic anhydrase 9 (Homo sapiens, UniProt Q16790)
VALUE_KIND: pKi
Scale note: pKi = -log10(concentration in M).

// solved cases for pKi follow
COMPOUND_STRING: CC(C)c1cccc(=O)c(O)c1
VALUE_KIND: pKi
EXPERIMENTAL_RESULT: 4.62
--
COMPOUND_STRING: Cc1ccc(S(=O)(=O)Oc2cccc(C(C)C)cc2=O)cc1
VALUE_KIND: pKi
EXPERIMENTAL_RESULT: 6.40
--
COMPOUND_STRING: Cc1ccc(S(=O)(=O)Oc2cc(C(C)C)cccc2=O)cc1
VALUE_KIND: pKi
EXPERIMENTAL_RESULT: 6.38

input: What is its pKi for Carbonic anhydrase 9 (Homo sapiens, UniProt Q16790)? Entry: O=C(Oc1cccccc1=O)C12CC3CC(CC(C3)C1)C2
output: 4.36

input: Give pKi (Carbonic anhydrase 9 (Homo sapiens, UniProt Q16790)) of the following molecule: CC(C)c1cccc(OC(=O)c2ccc([N+](=O)[O-])cc2)c(=O)c1
output: 6.43

input: # get_value(readout= pKi, system= Carbonic anhydrase 9 (Homo sapiens, UniProt Q16790)) for CC(C)c1cccc(OCc2ccccc2[N+](=O)[O-])c(=O)c1
output: 6.03

input: Under Carbonic anhydrase 9 (Homo sapiens, UniProt Q16790): pKi value of O=c1cccccc1OCCCCCBr ?
output: 6.27

input: Identify the measured pKi of O=c1cccccc1OCc1ccc(Br)cc1 for Carbonic anhydrase 9 (Homo sapiens, UniProt Q16790).
output: 4.42
